FYI, the data here is from patent EP4703359A1.

This section presents compounds with their documented Emax at 0.1 µM values.
Assay Target: α2-GABAA receptor (Homo sapiens, UniProt P18507+P47869)
Construct: expressed in transfected cells
Sequence (P47869 29-451): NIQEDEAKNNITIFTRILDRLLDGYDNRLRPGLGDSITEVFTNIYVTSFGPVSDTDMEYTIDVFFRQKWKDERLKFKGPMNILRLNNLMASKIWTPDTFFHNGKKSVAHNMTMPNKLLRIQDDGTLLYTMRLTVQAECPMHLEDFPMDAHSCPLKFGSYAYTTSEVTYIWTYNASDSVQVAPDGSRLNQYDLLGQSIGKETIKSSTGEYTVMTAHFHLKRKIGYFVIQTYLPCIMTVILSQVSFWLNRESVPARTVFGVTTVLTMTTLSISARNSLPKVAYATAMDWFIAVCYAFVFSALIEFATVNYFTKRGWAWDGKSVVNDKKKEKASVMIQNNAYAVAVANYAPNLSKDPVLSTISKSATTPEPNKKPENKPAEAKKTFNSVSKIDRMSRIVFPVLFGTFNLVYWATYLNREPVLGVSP
Sequence (P18507 40-467 isoform P18507-1 limits assumed): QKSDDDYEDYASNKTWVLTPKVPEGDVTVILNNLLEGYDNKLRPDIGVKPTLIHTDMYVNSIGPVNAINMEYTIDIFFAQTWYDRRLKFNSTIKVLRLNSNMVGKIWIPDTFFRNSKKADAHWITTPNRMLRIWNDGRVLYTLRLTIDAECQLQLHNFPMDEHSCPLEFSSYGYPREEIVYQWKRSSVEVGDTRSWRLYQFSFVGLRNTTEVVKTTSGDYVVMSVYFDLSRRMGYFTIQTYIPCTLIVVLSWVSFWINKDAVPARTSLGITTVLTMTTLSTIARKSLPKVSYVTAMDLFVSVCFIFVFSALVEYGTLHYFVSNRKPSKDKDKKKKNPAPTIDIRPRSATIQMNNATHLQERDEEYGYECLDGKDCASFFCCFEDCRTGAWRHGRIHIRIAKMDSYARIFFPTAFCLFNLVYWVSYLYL
Sequence (P28472 26-473 partner): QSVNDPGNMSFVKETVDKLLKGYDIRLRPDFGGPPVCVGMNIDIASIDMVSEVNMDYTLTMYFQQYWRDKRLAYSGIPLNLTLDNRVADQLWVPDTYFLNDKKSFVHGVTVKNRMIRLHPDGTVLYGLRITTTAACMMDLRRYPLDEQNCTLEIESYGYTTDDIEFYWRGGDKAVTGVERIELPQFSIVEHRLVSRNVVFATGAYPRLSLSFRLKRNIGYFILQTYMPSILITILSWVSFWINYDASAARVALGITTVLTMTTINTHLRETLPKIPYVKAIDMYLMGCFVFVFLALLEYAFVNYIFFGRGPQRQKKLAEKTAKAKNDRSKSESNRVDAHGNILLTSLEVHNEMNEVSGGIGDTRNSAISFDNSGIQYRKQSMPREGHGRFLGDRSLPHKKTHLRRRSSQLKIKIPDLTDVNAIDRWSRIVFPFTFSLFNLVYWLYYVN
Protocol Details: Whole-cell patch-clamp electrophysiology, positive allosteric modulatory activity in α2-GABAAR-HEK293 cells
Assay type: cell-based
Test Settings: compound 100 nM; GABA 0.10 to 0.11 µM (approximately EC7-8); normalized to reference compound CVL-865 (= 100%); read-out: α2-GABAAR Positive allosteric modulatory activity
Reported Metric: Emax at 0.1 µM (%)

[[record]]
compound = "CCCNC(=O)c1nc2c(-c3cc(Cl)ccc3OC)cccn2c1N"
reported_metric = "Emax at 0.1 µM"
measured_result = 192

[[record]]
compound = "[2H]c1ccc(F)c(-c2cccn3c(N)c(C(=O)NCCC)nc23)c1OC"
reported_metric = "Emax at 0.1 µM"
measured_result = 97

[[record]]
compound = "CCn1cnc2c(-c3ccc(F)c(-c4ccc(S(=O)(=O)CC)cc4OC)c3)cnnc21 [CVL-865, reference compound]"
reported_metric = "Emax at 0.1 µM"
measured_result = 100

[[record]]
compound = "CCCNC(=O)c1nc2c(-c3cc(OC)ccc3OC)c(F)ccn2c1N"
reported_metric = "Emax at 0.1 µM"
measured_result = 77

[[record]]
compound = "COc1cccc(F)c1-c1cccn2c(N)c(C(=O)NC3CC(C)C3)nc12 (centres unmarked)"
reported_metric = "Emax at 0.1 µM"
measured_result = 66

[[record]]
compound = "CCCNC(=O)c1nc2c(-c3cc(F)cc(C#N)c3)cccn2c1N"
reported_metric = "Emax at 0.1 µM"
measured_result = 89

[[record]]
compound = "CCCNC(=O)c1nc2c(-c3c(OC)ccc4ccc(F)cc34)cccn2c1N"
reported_metric = "Emax at 0.1 µM"
measured_result = 90

[[record]]
compound = "CCCNC(=O)c1nc2c(-c3cc4c(cc3OC)N(C)C(=O)CO4)c(F)ccn2c1N"
reported_metric = "Emax at 0.1 µM"
measured_result = 71

[[record]]
compound = "CCCNC(=O)c1nc2c(-c3cc4cn(C)nc4cc3OC)cccn2c1N"
reported_metric = "Emax at 0.1 µM"
measured_result = 52

[[record]]
compound = "CCCNC(=O)c1nc2c(-c3c(OC)ccc(F)c3F)cccn2c1N"
reported_metric = "Emax at 0.1 µM"
measured_result = 101

[[record]]
compound = "CCCNC(=O)c1nc2c(-c3cc(C)ccc3OC)cccn2c1N"
reported_metric = "Emax at 0.1 µM"
measured_result = 156

[[record]]
compound = "CCCNC(=O)c1nc2c(-c3cncc(C)c3)cccn2c1N"
reported_metric = "Emax at 0.1 µM"
measured_result = 48

[[record]]
compound = "CCCNC(=O)c1nc2c(-c3cc(F)cc(F)c3)c(F)ccn2c1N"
reported_metric = "Emax at 0.1 µM"
measured_result = 49

[[record]]
compound = "CCCNC(=O)c1nc2c(-c3cc4c(cc3OC)N(C)C(=O)CO4)cccn2c1N"
reported_metric = "Emax at 0.1 µM"
measured_result = 93

